Each recorded value in this set is attributed to ChEMBL document CHEMBL1138602.

# EXPERIMENT DESCRIPTION: Drug level in blood of complete Freund's adjuvant-induced rat inflammatory pain model at 10 mg/kg, po administered after 23 hrs of adjuvant challenge measured after 1 hr
# Format: ADME, organism-based
# Design: dose 10 mg/kg, route oral
# RECORDED CONDITIONS: read-out: Drug uptake
REPORTED ENDPOINT: concentration at 1 h (nM)
Numbers only here, please. The scale is nM.

SMI: O=C([O-])c1cccc(Cc2cc(Cl)ccc2OCc2ccc(F)cc2Cl)n1.[Na+]
concentration at 1 h, nM: 3010

Turning now to a further molecule:
Inquiry: // concentration at 1 h lookup, key: O=C([O-])c1cccc(Cc2cc(Cl)ccc2OCc2ccc(Cl)cc2F)n1.[Na+]
Reply text: 1510
